ASSAY SYSTEM: CSF1 receptor (CSF1R) (UniProt P07333)
Sequence (P07333 20-972 limits assumed): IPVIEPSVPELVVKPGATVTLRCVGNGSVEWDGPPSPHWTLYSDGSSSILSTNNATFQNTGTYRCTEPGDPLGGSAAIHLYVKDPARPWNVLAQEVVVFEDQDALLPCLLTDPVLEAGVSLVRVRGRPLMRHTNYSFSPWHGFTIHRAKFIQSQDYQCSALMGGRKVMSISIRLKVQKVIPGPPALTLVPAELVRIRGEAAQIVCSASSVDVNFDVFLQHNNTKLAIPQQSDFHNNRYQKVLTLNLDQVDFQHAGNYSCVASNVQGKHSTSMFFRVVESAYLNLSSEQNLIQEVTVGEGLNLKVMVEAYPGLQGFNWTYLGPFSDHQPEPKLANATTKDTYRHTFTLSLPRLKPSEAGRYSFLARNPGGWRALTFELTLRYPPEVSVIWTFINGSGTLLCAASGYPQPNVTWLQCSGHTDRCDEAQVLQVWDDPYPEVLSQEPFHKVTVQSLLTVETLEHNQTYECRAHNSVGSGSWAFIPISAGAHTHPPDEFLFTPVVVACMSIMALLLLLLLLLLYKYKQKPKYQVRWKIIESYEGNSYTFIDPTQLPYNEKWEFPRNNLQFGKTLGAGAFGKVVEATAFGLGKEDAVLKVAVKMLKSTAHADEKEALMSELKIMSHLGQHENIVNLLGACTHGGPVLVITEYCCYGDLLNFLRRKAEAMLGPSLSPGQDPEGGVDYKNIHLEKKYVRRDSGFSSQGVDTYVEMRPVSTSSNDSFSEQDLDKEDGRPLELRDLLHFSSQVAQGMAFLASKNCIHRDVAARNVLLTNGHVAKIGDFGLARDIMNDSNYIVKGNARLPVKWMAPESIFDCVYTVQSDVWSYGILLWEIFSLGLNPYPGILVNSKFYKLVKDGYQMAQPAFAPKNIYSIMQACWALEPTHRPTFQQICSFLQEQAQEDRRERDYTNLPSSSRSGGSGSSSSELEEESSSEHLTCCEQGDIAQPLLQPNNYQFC
ASSAY: cell-based or functional assay
QUANTITY: Max activation value, HEK293 CSF1R/SRE reporter, biological replica 2
Lab note: jot down the number only; don't add units.

Task item: Using the record for CSF1 V117I (ligand) EEVSEYCSHMIGSGHLQSLQRLIDSQMETSCQITFEFVDQEQLKDPVCYLKKAFLLVQDIMEDTMRFRDNTPNAIAIVQLQELSLRLKSCFTKDYEEHDKACVRTFYETPLQLLEKIKNVFNETKNLLDKDWNIFSKNCNNSFAECSSQD , report its Max activation value, HEK293 CSF1R/SRE reporter, biological replica 2.
Reply: 1.28

Further cases:
Task item: Using the record for CSF1 V120I (ligand) EEVSEYCSHMIGSGHLQSLQRLIDSQMETSCQITFEFVDQEQLKDPVCYLKKAFLLVQDIMEDTMRFRDNTPNAIAIVQLQELSLRLKSCFTKDYEEHDKACVRTFYETPLQLLEKVKNIFNETKNLLDKDWNIFSKNCNNSFAECSSQD , report its Max activation value, HEK293 CSF1R/SRE reporter, biological replica 2.
Reply: 1.37

Task item: Using the record for CSF1 (wild-type human CSF1) (ligand) EEVSEYCSHMIGSGHLQSLQRLIDSQMETSCQITFEFVDQEQLKDPVCYLKKAFLLVQDIMEDTMRFRDNTPNAIAIVQLQELSLRLKSCFTKDYEEHDKACVRTFYETPLQLLEKVKNVFNETKNLLDKDWNIFSKNCNNSFAECSSQD , report its Max activation value, HEK293 CSF1R/SRE reporter, biological replica 2.
Reply: 1.14

Task item: Using the record for CSF1 A76I, V117L (ligand) EEVSEYCSHMIGSGHLQSLQRLIDSQMETSCQITFEFVDQEQLKDPVCYLKKAFLLVQDIMEDTMRFRDNTPNAIIIVQLQELSLRLKSCFTKDYEEHDKACVRTFYETPLQLLEKLKNVFNETKNLLDKDWNIFSKNCNNSFAECSSQD , report its Max activation value, HEK293 CSF1R/SRE reporter, biological replica 2.
Reply: 1.14
